Test system: antibodies in sera from SARS patients (sera 1a, 1b, 2, 6, 37, 62, London, SARS-yellow, SARS-green)
Assay type: binding, human
Parameters: unit not given here
READOUT: Binding of serum 37 to linear peptides of protein X4 of SARS-CoV Urbani

These solved cases illustrate the format of a correct answer.
- LKEPCPSGTYEGNSP: 0.6
- QQELYSPLFLIVAAL: 0.7
- VQQELYSPLFLIVAA: 0.7

Give the measured Binding of serum 37 to linear peptides of protein X4 of SARS-CoV Urbani of YQLRARSVSPKLFIR . 0.8

Give the measured Binding of serum 37 to linear peptides of protein X4 of SARS-CoV Urbani of TYQLRARSVSPKLFI . 0.8

Give the measured Binding of serum 37 to linear peptides of protein X4 of SARS-CoV Urbani of RARSVSPKLFIRQEE . 0.7

Give the measured Binding of serum 37 to linear peptides of protein X4 of SARS-CoV Urbani of LIVFTSCELYHYQEC . 1.0

Give the measured Binding of serum 37 to linear peptides of protein X4 of SARS-CoV Urbani of EEVQQELYSPLFLIV . 0.7

Give the measured Binding of serum 37 to linear peptides of protein X4 of SARS-CoV Urbani of SVSPKLFIRQEEVQQ . 0.7

Give the measured Binding of serum 37 to linear peptides of protein X4 of SARS-CoV Urbani of LFLIVAALVFLILCF . 0.6

---

Tested on: antibodies in sera from SARS patients (sera 1a, 1b, 2, 6, 37, 62, London, SARS-yellow, SARS-green)
Type: binding, human
Recorded measurements of Binding of serum London to linear peptides of protein M of SARS-CoV Urbani, one per entry
API doc: respond with a numeric literal and nothing else, no unit.

These solved cases illustrate the format of a correct answer.
• KLVFLWLLWPVTLAC = 0.4
• LLNVPLRGTIVTRPL = 0.4
• GFLFLAWIMLLQFAY = 0.3
• ELVIGAVIIRGHLRM = 0.3
• FVLAAVYRINWVTGG = 0.3

Give the measured Binding of serum London to linear peptides of protein M of SARS-CoV Urbani of ESELVIGAVIIRGHL . 0.3

Give the measured Binding of serum London to linear peptides of protein M of SARS-CoV Urbani of FLYIIKLVFLWLLWP . 0.3

Give the measured Binding of serum London to linear peptides of protein M of SARS-CoV Urbani of LACFVLAAVYRINWV . 0.4

Give the measured Binding of serum London to linear peptides of protein M of SARS-CoV Urbani of VTLACFVLAAVYRIN . 0.3

Give the measured Binding of serum London to linear peptides of protein M of SARS-CoV Urbani of LNVPLRGTIVTRPLM . 0.4

---

Tested on: antibodies in sera from SARS patients (sera 1a, 1b, 2, 6, 37, 62, London, SARS-yellow, SARS-green)
Type: binding, human
Design: unit not given here
READOUT: Binding of serum 6 to looped/cyclic peptide (PEPSCAN-ELISA)
API doc: respond with a numeric literal and nothing else, no unit.

- NKRWQLALYKGFQFI: 0.5
- SATKIIALNKRWQLA: 0.9
- SKNPLLYDANYFVCW: 0.4
- LLFVTIYSHLLLVAA: 0.2
- QCINACRIIMRCWLC: 0.8
- VIGVAFLAVFQSATK: 0.6
- FMRFFTLGSITAQPV: 0.4
- YKGFQFICNLLLLFV: 0.3

Give the measured Binding of serum 6 to looped/cyclic peptide (PEPSCAN-ELISA) of NACRIIMRCWLCWKC . 0.6

Give the measured Binding of serum 6 to looped/cyclic peptide (PEPSCAN-ELISA) of LYKGFQFICNLLLLF . 1.5

Give the measured Binding of serum 6 to looped/cyclic peptide (PEPSCAN-ELISA) of IYFLQCINACRIIMR . 1.0

Give the measured Binding of serum 6 to looped/cyclic peptide (PEPSCAN-ELISA) of VFQSATKIIALNKRW . 0.6

Give the measured Binding of serum 6 to looped/cyclic peptide (PEPSCAN-ELISA) of KRWQLALYKGFQFIC . 0.8

---

System: control sera (pooled serum of ten healthy LUMC hospital workers; commercial negative donor pooled serum from the Dutch bloodbank)
Format: binding, human
Mark Yes for reported Binding of Control serum LUMC to looped peptides of 0.7 or greater; mark No for anything smaller.

# count of solved cases: 5
* SLYMAISPKFTTSLS | Yes
* TFGGPTDSTDNNQNG | No
* YRRATRRVRGGDGKM | No
* IGVAFLAVPQSATKI | No
* RQGTDYKHWPQIAQF | Yes

Test whether the sequence TATIPLQASLPFGWL records Binding of Control serum LUMC to looped peptides of 0.7 or higher. Yes

---

System: antibodies in sera from SARS patients (sera 1a, 1b, 2, 6, 37, 62, London, SARS-yellow, SARS-green)
Assay type: binding, human
Parameters: unit not given here
Recorded measurements of Binding of serum 37 to looped/cyclic peptides of protein X4 of SARS-CoV Urbani, one per entry

These solved cases illustrate the format of a correct answer.
* TSTHFAFACADGTRH | 0.7
* PKLFIRQEEVQQELY | 0.7
* QLRARSVSPKLFIRQ | 0.6
* LIVFTSCELYHYQEC | 0.7
* SPLFLIVAALVFLIL | 0.7

Give the measured Binding of serum 37 to looped/cyclic peptides of protein X4 of SARS-CoV Urbani of RARSVSPKLFIRQEE . 0.7

Give the measured Binding of serum 37 to looped/cyclic peptides of protein X4 of SARS-CoV Urbani of YSPLFLIVAALVFLI . 0.6

Give the measured Binding of serum 37 to looped/cyclic peptides of protein X4 of SARS-CoV Urbani of MKIILFLTLIVFTSC . 0.6

Give the measured Binding of serum 37 to looped/cyclic peptides of protein X4 of SARS-CoV Urbani of KFALTCTSTHFAFAC . 0.7

Give the measured Binding of serum 37 to looped/cyclic peptides of protein X4 of SARS-CoV Urbani of YQLRARSVSPKLFIR . 0.7

---

Tested on: antibodies in sera from SARS patients (sera 1a, 1b, 2, 6, 37, 62, London, SARS-yellow, SARS-green)
Assay type: binding, human
READOUT: Binding of serum 1a to linear peptides of protein M of SARS-CoV Urbani
API doc: respond with a numeric literal and nothing else, no unit.

These solved cases illustrate the format of a correct answer.
• AAYNRYRIGNYKLNT = 0.7
• PVTLACFVLAAVYRI = 0.7
• MLLQFAYSNRNRFLY = 0.6
• WLLWPVTLACFVLAA = 0.6

Give the measured Binding of serum 1a to linear peptides of protein M of SARS-CoV Urbani of LYIIKLVFLWLLWPV . 0.8

Give the measured Binding of serum 1a to linear peptides of protein M of SARS-CoV Urbani of VIGFLFLAWIMLLQF . 0.7

Give the measured Binding of serum 1a to linear peptides of protein M of SARS-CoV Urbani of ACFVLAAVYRINWVT . 0.7

---

Tested on: antibodies in sera from SARS patients (sera 1a, 1b, 2, 6, 37, 62, London, SARS-yellow, SARS-green)
Type: binding, human
Recorded measurements of Binding of serum 2 to linear peptides of protein X3 of SARS-CoV Urbani, one per entry
API doc: respond with a numeric literal and nothing else, no unit.

These solved cases illustrate the format of a correct answer.
- NLDVIISSIVRQLFK: 0.4
- TFRIAIWNLDVIISS: 0.6

Give the measured Binding of serum 2 to linear peptides of protein X3 of SARS-CoV Urbani of QVTIAEILIIIMRTF . 0.5

Give the measured Binding of serum 2 to linear peptides of protein X3 of SARS-CoV Urbani of DFQVTIAEILIIIMR . 0.6

---

Tested on: antibodies in sera from SARS patients (sera 1a, 1b, 2, 6, 37, 62, London, SARS-yellow, SARS-green)
Type: binding, human
READOUT: Binding of serum London to linear peptides of protein N of SARS-CoV Urbani
API doc: respond with a numeric literal and nothing else, no unit.

These solved cases illustrate the format of a correct answer.
- ADMDDFSRQLQNSMS: 0.8
- GKEELRFPRGQGVPI: 0.5

Give the measured Binding of serum London to linear peptides of protein N of SARS-CoV Urbani of AIKLDDKDPQFKDNV . 0.6

Give the measured Binding of serum London to linear peptides of protein N of SARS-CoV Urbani of QIAQFAPSASAFFGM . 0.5

Give the measured Binding of serum London to linear peptides of protein N of SARS-CoV Urbani of KMKELSPRWYFYYLG . 0.4

---

Tested on: rabbit serum obtained by immunizing a rabbit with the SARS-CoV strain Frankfurt 1
Type: binding
Set-up: unit not given here
Mark fulfilled for reported Binding of a rabbit serum to looped peptides of 0.4 or greater; mark not fulfilled for anything smaller.

# count of solved cases: 8
- VVVHGYFTEVYYQLE: fulfilled
- AGMEAQFLYLYALIY: fulfilled
- IGGYSEDRHSGVKDY: fulfilled
- FICNLLLLFVTIYSH: fulfilled
- GVKDYVVVHGYFTEV: fulfilled
- SLPFGWLVIGVAFLA: not fulfilled
- KMLHSSSLTSLLKTH: not fulfilled
- FFIFNKLVKDPPNVQ: fulfilled

Test whether the sequence MRCWLCWKCKSKNPL records Binding of a rabbit serum to looped peptides of 0.4 or higher. fulfilled

Test whether the sequence LYLYALIYFLQCINA records Binding of a rabbit serum to looped peptides of 0.4 or higher. fulfilled

Test whether the sequence DTIVVTEGDGISTPK records Binding of a rabbit serum to looped peptides of 0.4 or higher. fulfilled

Test whether the sequence SHLLLVAAGMEAQFL records Binding of a rabbit serum to looped peptides of 0.4 or higher. not fulfilled
